# System: lung Col1a1 expression
# assay: Precision cut lung slices, chronic bleomycin exposure, Col1a1 expression
# Assay type: cell-based, mice (C57BL/6)
# condition.parameters: 7 days culture; nintedanib and pirfenidone at 10× therapeutic concentrations; ALK5 inhibitor at 10× IC50; FIG. 4A
experimental.endpoint: lung slice Col1a1 expression compared to DMSO vehicle control slices

chem.smiles	observed.value
COC(=O)c1ccc2c(c1)NC(=O)/C2=C(\Nc1ccc(N(C)C(=O)CN2CCN(C)CC2)cc1)c1ccccc1	slight increase
Cc1ccc(=O)n(-c2ccccc2)c1	slight increase
